FYI, the data here is from ChEMBL document CHEMBL1144356.

Exercise: for every item that follows, state its recorded IC50.
Biological target: Peroxisome proliferator-activated receptor delta (Homo sapiens)
Sequence (Q03181 whole entry): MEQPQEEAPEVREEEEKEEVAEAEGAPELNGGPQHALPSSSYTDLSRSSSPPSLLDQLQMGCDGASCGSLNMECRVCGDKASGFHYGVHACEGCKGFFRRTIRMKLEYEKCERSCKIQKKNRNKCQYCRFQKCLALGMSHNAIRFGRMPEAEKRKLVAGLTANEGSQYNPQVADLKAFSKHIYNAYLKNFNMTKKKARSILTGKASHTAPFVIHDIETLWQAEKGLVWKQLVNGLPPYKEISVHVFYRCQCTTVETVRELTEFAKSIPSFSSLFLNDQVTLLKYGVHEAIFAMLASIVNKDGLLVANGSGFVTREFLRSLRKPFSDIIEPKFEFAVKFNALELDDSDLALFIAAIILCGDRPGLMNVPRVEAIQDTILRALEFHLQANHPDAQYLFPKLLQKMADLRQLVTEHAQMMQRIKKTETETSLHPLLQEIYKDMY
Assay: In vitro binding affinity for PPAR-delta

Could you please provide reported IC50 for "CC[C@@]1(C(=O)O)Cc2cc(OCCCOc3ccc(CC(F)(F)F)cc3Cl)ccc2O1" ? Thanks!
> 15 µM

Could you please provide reported IC50 for "CC[C@]1(C(=O)O)Cc2cc(OCCCOc3ccc(OC(F)(F)F)cc3Cl)ccc2O1" ? Thanks!
> 50 µM

Could you please provide reported IC50 for O=C(O)C1(Cc2ccccc2)Cc2cc(OCCCOc3ccc(OC(F)(F)F)cc3Cl)ccc2O1 (racemic) ? Thanks!
> 50 µM

Could you please provide reported IC50 for "CC(C)(C)[C@@]1(C(=O)O)Cc2cc(OCCOc3ccc(OC(F)(F)F)cc3Cl)ccc2O1" ? Thanks!
> 50 µM

Could you please provide reported IC50 for "CC[C@@]1(C(=O)O)Cc2cc(OCCCOc3ccc(OCC(F)(F)F)cc3)ccc2O1" ? Thanks!
> 15 µM

Could you please provide reported IC50 for CCC1(C(=O)O)Cc2cc(OCCCOc3ccc(OCC(F)(F)F)cc3Cl)ccc2O1 (racemic) ? Thanks!
> 15 µM

Could you please provide reported IC50 for "CC[C@@]1(C(=O)O)Cc2cc(OCCCOc3ccc(OC(F)(F)F)cc3Cl)ccc2O1" ? Thanks!
> 15 µM

Could you please provide reported IC50 for CCCc1cc(SC(F)(F)F)ccc1OCCCOc1ccc2c(c1)CC(CC)(C(=O)O)O2 (racemic) ? Thanks!
5.23 µM

Could you please provide reported IC50 for "CC(C)[C@@]1(C(=O)O)Cc2cc(OCCCOc3cc(C(F)(F)F)ccc3Cl)ccc2O1" ? Thanks!
> 15 µM

Could you please provide reported IC50 for "CC(C)[C@]1(C(=O)O)Cc2cc(OCCCOc3ccc(OC(F)(F)F)cc3Cl)ccc2O1" ? Thanks!
> 15 µM

Could you please provide reported IC50 for O=C(O)C1(C(F)(F)F)Cc2cc(OCCCOc3ccc(CC(F)(F)F)cc3Cl)ccc2O1 (racemic) ? Thanks!
0.399 µM

Could you please provide reported IC50 for "CC[C@@]1(C(=O)O)Cc2cc(OCCCOc3ccc(CCC(F)(F)F)cc3Cl)ccc2O1" ? Thanks!
> 15 µM

Could you please provide reported IC50 for CC(C)(C)C1(C(=O)O)Cc2cc(OCCCOc3ccc(CC(F)(F)F)cc3Cl)ccc2O1 (racemic) ? Thanks!
> 50 µM

Could you please provide reported IC50 for CCC1(C(=O)O)Cc2cc(OCCCOc3ccc(SC(F)(F)F)cc3Cl)ccc2O1 (racemic) ? Thanks!
> 15 µM

Could you please provide reported IC50 for CCC1(C(=O)O)Cc2ccc(OCCCOc3ccc(OC(F)(F)F)cc3Cl)cc2O1 (configuration not stated) ? Thanks!
1.19 µM

Could you please provide reported IC50 for CC1(C(=O)O)Cc2cc(OCCCOc3ccc(OCC(F)(F)F)cc3Cl)ccc2O1 (racemic) ? Thanks!
> 15 µM

Could you please provide reported IC50 for CCC1(C(=O)O)Cc2cc(OCCCOc3ccc(CC(C)(C)C)cc3Cl)ccc2O1 (racemic) ? Thanks!
> 50 µM

Could you please provide reported IC50 for "CC(C)[C@@]1(C(=O)O)Cc2cc(OCCOc3ccc(OC(F)(F)F)cc3Cl)ccc2O1" ? Thanks!
> 50 µM

Could you please provide reported IC50 for "CC(C)[C@@]1(C(=O)O)Cc2cc(OCCCOc3ccc(OC(F)(F)F)cc3Cl)ccc2O1" ? Thanks!
> 15 µM

Could you please provide reported IC50 for CCC1(C(=O)O)Cc2cc(OCCCOc3ccc(C(C)(C)C)cc3Cl)ccc2O1 (racemic) ? Thanks!
> 15 µM

Could you please provide reported IC50 for O=C(O)C1Cc2cc(OCCCOc3ccc(OCC(F)(F)F)cc3Cl)ccc2O1 (racemic) ? Thanks!
> 15 µM

Could you please provide reported IC50 for CCC1(C(=O)O)Cc2cc(OCCCOc3ccc(C(F)(F)F)cc3Cl)ccc2O1 (racemic) ? Thanks!
0.834 µM
